biological target: Calmodulin-1 (Homo sapiens); experiment: CALM1 binders on microarrays, EGTA buffer, profiling panel, biochemical, small-molecule microarray, Cy5-labelled CALM1 (AID 1111); conditions: Cy5-CALM1 binding fluorescence, higher = more signal;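 note: labelled calmodulin applied in Tris saline Tween buffer holding calcium plus EGTA and DTT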
property: composite z-score

• O=C1O[C@H](c2ccccc2)[C@H](c2ccccc2)N2[C@H]1[C@@H](C(=O)Nc1nc3ccccc3s1)[C@]1(C(=O)Nc3ccc(C#CC4(O)CCCCCC4)cc31)[C@H]2c1ccccc1OCCO = 1.04
• COCCOC(=O)N1C(=O)[C@@]2(c3cc(C#CCC(C(=O)OC)C(=O)OC)ccc31)[C@H](C(=O)N1CCc3cc(OC)c(OC)cc3C1)[C@H]1C(=O)O[C@H](c3ccccc3)[C@H](c3ccccc3)N1[C@@H]2c1ccc(OCCO)cc1 = 0.756
• CC(C)N1CC=CC23O[C@@H]4C=CCOC(=O)[C@@H]4[C@H]2C(=O)N(CCCO)[C@@H]3C1=O (stereo partly drawn) = -0.373

====

assay: S. cerevisiae RM11-1a growth modifiers, primary screen, strain RM11-1a, OD600, basal, 24 h (AID 1177); conditions: OD600, 24 h, higher = more signal, called active from +8 up or from −8 down;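 note: cultures grown under basal conditions with no added stressor; test concentration not given here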
Documented z-score across a set of compounds
property: z-score

- CC1CC/C=C\[C@H]2OC34C=CCN(C(C)C)C(=O)[C@H]3N(CCCCCCO)C(=O)[C@@H]4C2C(=O)O1 (some centres undefined): -0.908
- COCCOC(=O)N1C(=O)[C@@]2(c3cc(C#Cc4ccc(OC)cc4)ccc31)[C@H](c1ccccc1OCCO)N1[C@H](c3ccccc3)[C@H](c3ccccc3)OC(=O)[C@H]1[C@@H]2C(=O)N1CCCCCCC1: 1.84
- O=C1O[C@H](c2ccccc2)[C@H](c2ccccc2)N2[C@H]1[C@@H](C(=O)NC[C@H](O)c1ccccc1)[C@]1(C(=O)Nc3ccc(C#CCCO)cc31)[C@H]2c1ccc(OCCO)cc1: 3.46
- COC(=O)Cn1c(C(=O)N(C)C)cc2c1C[C@H]1CN(C(=O)c3ccccc3)[C@@](Cc3ccc(F)cc3)(C(=O)OC)[C@@H]21: 1.34
- COc1cccc(/C=C/C=O)c1: 0.0721
- CCCCN1CC=CC23O[C@@H]4/C=C\CCC(C)OC(=O)C4[C@H]2C(=O)N(C(CO)C(C)C)[C@@H]3C1=O (some centres undefined): 0.164
- CCOC(=O)C1=C[C@@H](c2ccccc2)N(S(=O)(=O)c2ccc(C)cc2)[C@H]1c1ccccc1Cl: 2.01
- COCCOC(=O)N1C(=O)[C@@]2(c3cc(C#Cc4ccc(OC)cc4)ccc31)[C@H](c1ccc(O)cc1)N1[C@H](c3ccccc3)[C@H](c3ccccc3)OC(=O)[C@H]1[C@@H]2C(=O)N1CCCCCCC1: 0.266
- CC(C)C(=C=CC[C@H](O)c1ccc(OCCO)cc1)C[C@H](O)c1ccccn1: 0.673
- CC(C)[Si](C#C[Si](C(C)C)(C(C)C)C(C)C)(O[C@H](C)c1cn([C@H](CO)Cc2ccccc2)nn1)C(C)C: -0.504
- CCCC[C@@H]1C[C@H]1[C@@H](NC(=O)c1cccs1)c1ccc(C(F)(F)F)cc1: 1.83
- COc1ccc([Si](C)(C)[C@H]2[C@H](CCn3cc([C@H](O)c4ccccc4)nn3)O[C@@]3(C(=O)N(Cc4ccc(N5C(=O)c6cccc7cccc5c67)cc4)c4ccccc43)[C@@H]2C)cc1: 1.26
- NCCCCCCNC(=O)[C@@H]1C[C@@H]2C(=O)N[C@@H](CCCCN)C(=O)N2[C@@H]1c1cccc(OCCO)c1: 0.58
- O=C(NCc1ccccc1)[C@@H]1c2ccccc2C(=O)N(Cc2ccccc2C(F)(F)F)[C@H]1c1ccc(CO)cc1: 0.0858
